Below is a list of entries, each paired with its recorded CARBON DIOXIDE value.
# Organism: Rattus norvegicus
# assay.comment: DrugMatrix - Regimen: Daily Repeat
# Type: toxicity, organism-based, Sprague-Dawley
# Set-up: regimen Daily Repeat, gender Male, age 6-8 weeks
# protocol.conditions: in vivo, po, 0 mg/kg, 72 h, tissue Plasma, route oral GAVAGE, dose level Control, time 3 day, vehicle 100 % WATER
measured.parameter: CARBON DIOXIDE (mmol/L)

> print(dat)
                                   molecule  experimental.result
1                 CNNCc1ccc(C(=O)NC(C)C)cc1                   31
2          C[C@H](CS)C(=O)N1CCC[C@H]1C(=O)O                22.83
3            N[C@@H](Cc1ccc(O)c(O)c1)C(=O)O                24.17
4  C[C@H]1c2cccc(O)c2C(=O)C2=C(O)[C@]3(O)C(=O)C(C(N)=O)=C(O)[C@@H](N(C)C)[C@@H]3[C@@H](O)[C@@H]21.O                24.17
5  COc1cc2nc(N3CCN(C(=O)C4COc5ccccc5O4)CC3)nc(N)c2cc1OC (centres undefined)                24.17
6               c1ccc([C@H]2CN3CCSC3=N2)cc1                29.83
7  C=CCC1(C(C)CCC)C(=O)NC(=O)NC1=O (centres undefined)                34.17
8                              NCCCCCC(=O)O                24.83
9  Cc1onc(-c2ccccc2Cl)c1C(=O)N[C@@H]1C(=O)N2[C@@H]1SC(C)(C)[C@@H]2C(=O)O                24.83

---

# Organism: Rattus norvegicus
# assay.comment: DrugMatrix - Regimen: Daily Repeat
# Format: toxicity, organism-based, Sprague-Dawley
# Design: regimen Daily Repeat, gender Male, age 6-8 weeks
# protocol.conditions: in vivo, po, 0 mg/kg, 72 h, tissue Plasma, route oral GAVAGE, dose level Control, time 3 day, vehicle 100 % WATER
measured.parameter: CHOLESTEROL (mg/dL)

> print(dat)
                                   compound  experimental.result
1               Cn1cc[nH]c1=S [METHIMAZOLE]                79.67
2  C[C@](N)(Cc1ccc(O)c(O)c1)C(=O)O [METHYLDOPA]                73.67
3  C[C@H](CS)C(=O)N1CCC[C@H]1C(=O)O [CAPTOPRIL]                   66
4  CNNCc1ccc(C(=O)NC(C)C)cc1 [PROCARBAZINE]                65.17
5  CC(O)CO (stereo unspecified) [PROPYLENE GLYCOL]                 72.5
6          NCCCCCC(=O)O [AMINOCAPROIC ACID]                 72.5

---

Listing of recorded MONOCYTE by entry.
# Species on record: Rattus norvegicus
# assay.comment: DrugMatrix - Regimen: Daily Repeat
# Type: toxicity, organism-based, Sprague-Dawley
# Design: regimen Daily Repeat, gender Male, age 6-8 weeks
# protocol.conditions: in vivo, po, 0 mg/kg, 72 h, tissue Blood, route oral GAVAGE, dose level Control, time 3 day, vehicle .5 % CMC
measured.parameter: MONOCYTE (%)

> print(dat)
                                   compound  experimental.result
1  CC(C)(C)NC(=O)[C@@H]1C[C@@H]2CCCC[C@@H]2CN1C[C@@H](O)[C@H](Cc1ccccc1)NC(=O)[C@H](CC(N)=O)NC(=O)c1ccc2ccccc2n1                    0
2  NC1=NC(=O)C(c2ccccc2)O1 (centres undefined)                 3.33
3  CCn1cc(C(=O)O)c(=O)c2cc(F)c(N3CCNCC3)cc21                 1.17
4                                 ClC(Cl)Br                    6
5  CCCCc1oc2ccccc2c1C(=O)c1cc(I)c(OCCN(CC)CC)c(I)c1                  1.4
6  Cc1ccc(/N=C/N(C)/C=N/c2ccc(C)cc2C)c(C)c1                 1.17
7                COc1nc(C)nc(Cl)c1N=C1NCCN1                 0.83
8    CN1CCN(CCCN2c3ccccc3Sc3ccc(Cl)cc32)CC1                 0.67
9       Nc1ccn([C@H]2CC[C@@H](CO)O2)c(=O)n1                 2.83
